Kindly state pIC50 for each of the entries shown.
- tgt: hROMK (hKir1.1) (Homo sapiens, UniProt P48048)
- Construct: expressed in transfected cells
- Sequence (P48048 whole entry): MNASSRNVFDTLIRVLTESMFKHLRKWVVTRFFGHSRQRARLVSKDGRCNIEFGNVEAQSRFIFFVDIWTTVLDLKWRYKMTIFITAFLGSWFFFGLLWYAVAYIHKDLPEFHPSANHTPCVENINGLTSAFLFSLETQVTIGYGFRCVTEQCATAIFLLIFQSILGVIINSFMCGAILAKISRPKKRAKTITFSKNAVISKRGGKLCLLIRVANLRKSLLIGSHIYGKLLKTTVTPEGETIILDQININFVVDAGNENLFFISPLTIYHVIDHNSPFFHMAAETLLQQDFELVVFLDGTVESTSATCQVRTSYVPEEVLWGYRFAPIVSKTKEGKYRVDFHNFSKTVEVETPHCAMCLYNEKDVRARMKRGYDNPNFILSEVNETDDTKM
- protocol.notes: Thallium Flux Assay
- Format: cell-based
- conditions.used: HEK293 cells stably expressing hROMK (hKir1.1), FLIPR-Tetra; read-out: Thallium Flux IC50
Give bare numbers, as −log10 of the molar value.

Report pIC50 for every entry below.
1. COc1cc([C@@H]2CN3CCN(C(=O)Cc4ccc(-n5cnnn5)nc4)C[C@H]3CO2)ccc1C#N [Example 41]
2. Cc1c([C@H]2CN3CCN(C(=O)C(F)(F)c4cnc(-n5cnnn5)nc4)C[C@H]3CO2)ccc(F)c1C#N [Example 188]
3. Cc1cc([C@@H]2CN3CCN(C(=O)Cc4ccc(-n5cnnn5)nc4)C[C@@H]3CO2)c(C)c(C#N)c1F [Example 174]
4. Cc1c([C@H]2CN3CCN(C(=O)Cc4cnc(-n5cnnn5)nc4C(F)(F)F)C[C@H]3CO2)ccc(F)c1C#N [Example 158]
5. Cc1c(C2CN3CCN(C(=O)Cc4cnc(-n5cnnn5)nc4)CC3CCO2)ccc2c1COC2=O (single isomer, unassigned) [Example 165]
6. Cc1c([C@@H]2CN3CCN(C(=O)Cc4cccc(-n5cnnn5)n4)C[C@@H]3CO2)ccc(F)c1C#N [Example 161]

Result:
6.64
6.46
6.46
6.70
6.68
6.46
